Target: Fatty acid synthase (Homo sapiens, UniProt P49327)
Sequence (P49327 whole entry, the tested form may be a part): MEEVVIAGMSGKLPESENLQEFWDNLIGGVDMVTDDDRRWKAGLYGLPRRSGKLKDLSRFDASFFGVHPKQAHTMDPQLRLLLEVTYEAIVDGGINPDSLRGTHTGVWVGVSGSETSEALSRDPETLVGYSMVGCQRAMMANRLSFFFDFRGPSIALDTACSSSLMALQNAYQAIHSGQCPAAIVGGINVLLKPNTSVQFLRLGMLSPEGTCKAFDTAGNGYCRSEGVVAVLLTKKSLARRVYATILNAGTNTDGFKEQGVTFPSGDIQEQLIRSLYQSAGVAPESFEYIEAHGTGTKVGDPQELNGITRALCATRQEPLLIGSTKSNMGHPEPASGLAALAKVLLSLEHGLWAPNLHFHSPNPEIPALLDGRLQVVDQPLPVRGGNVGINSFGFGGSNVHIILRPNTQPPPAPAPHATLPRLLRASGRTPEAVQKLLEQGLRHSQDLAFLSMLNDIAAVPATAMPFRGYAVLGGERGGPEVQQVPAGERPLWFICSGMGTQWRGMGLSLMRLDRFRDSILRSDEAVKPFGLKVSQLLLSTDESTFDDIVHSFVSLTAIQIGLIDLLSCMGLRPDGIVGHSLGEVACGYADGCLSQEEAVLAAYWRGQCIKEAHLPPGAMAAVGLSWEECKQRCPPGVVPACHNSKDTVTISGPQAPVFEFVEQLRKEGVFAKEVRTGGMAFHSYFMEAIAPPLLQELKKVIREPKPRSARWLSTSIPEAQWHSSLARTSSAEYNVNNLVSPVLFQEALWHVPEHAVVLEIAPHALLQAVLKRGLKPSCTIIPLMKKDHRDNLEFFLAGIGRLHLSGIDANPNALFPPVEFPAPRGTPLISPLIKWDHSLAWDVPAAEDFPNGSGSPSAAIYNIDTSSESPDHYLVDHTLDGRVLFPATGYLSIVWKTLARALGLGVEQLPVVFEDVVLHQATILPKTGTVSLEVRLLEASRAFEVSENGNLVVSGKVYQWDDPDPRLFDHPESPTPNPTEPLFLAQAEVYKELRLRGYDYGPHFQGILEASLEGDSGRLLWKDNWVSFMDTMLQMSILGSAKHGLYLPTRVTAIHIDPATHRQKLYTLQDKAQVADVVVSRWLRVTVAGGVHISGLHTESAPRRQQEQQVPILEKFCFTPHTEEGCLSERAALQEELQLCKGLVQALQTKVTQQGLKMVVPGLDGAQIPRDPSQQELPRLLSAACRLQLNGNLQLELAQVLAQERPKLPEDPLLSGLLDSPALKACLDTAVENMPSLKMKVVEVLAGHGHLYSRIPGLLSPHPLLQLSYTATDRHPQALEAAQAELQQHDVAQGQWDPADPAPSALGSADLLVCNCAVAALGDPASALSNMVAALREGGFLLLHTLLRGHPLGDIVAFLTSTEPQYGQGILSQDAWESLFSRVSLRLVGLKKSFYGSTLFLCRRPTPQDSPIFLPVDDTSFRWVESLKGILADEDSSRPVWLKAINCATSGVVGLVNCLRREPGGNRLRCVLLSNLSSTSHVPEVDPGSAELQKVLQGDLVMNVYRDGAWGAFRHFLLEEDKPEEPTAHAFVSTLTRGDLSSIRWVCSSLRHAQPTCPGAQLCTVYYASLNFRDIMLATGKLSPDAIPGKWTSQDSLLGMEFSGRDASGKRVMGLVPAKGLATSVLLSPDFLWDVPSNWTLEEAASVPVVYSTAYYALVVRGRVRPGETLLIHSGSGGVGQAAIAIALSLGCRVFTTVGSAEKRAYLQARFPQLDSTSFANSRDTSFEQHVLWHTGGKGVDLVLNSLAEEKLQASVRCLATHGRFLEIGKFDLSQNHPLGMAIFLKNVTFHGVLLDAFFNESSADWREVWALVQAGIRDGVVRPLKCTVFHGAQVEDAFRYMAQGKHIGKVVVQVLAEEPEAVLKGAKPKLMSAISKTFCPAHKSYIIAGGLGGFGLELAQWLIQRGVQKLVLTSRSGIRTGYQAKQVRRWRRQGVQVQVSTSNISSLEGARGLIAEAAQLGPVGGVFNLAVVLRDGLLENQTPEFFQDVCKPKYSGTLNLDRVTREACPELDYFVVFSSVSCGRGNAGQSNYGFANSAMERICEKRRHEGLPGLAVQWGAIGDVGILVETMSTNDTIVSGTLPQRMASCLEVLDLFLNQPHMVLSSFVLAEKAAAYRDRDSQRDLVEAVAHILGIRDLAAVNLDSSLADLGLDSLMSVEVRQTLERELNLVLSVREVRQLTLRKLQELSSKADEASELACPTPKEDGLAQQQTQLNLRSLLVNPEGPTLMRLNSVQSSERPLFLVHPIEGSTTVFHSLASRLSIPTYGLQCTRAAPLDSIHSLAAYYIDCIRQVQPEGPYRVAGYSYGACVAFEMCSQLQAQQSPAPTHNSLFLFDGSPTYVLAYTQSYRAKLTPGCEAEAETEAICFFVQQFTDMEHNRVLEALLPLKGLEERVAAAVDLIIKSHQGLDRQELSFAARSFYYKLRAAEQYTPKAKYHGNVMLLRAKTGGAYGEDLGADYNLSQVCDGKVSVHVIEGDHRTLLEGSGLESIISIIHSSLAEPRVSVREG
Experiment: FAS thioesterase domain inhibitors, dose response, biochemical, endpoint fluorescence intensity, uHTS hits (AID 624327);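 also: fluorescence from hydrolysis of an O-methyl fluorescein acyl ester substrate by the enzyme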
Type: functional
Activity calls are given as the source filed them. Rule as the data show it: active = IC50 of 20 µM or less and inactive = more.
property: IC50

IC50 reading for O=C(Nc1ccccc1[N+](=O)[O-])OCC=Cc1ccccc1 : 8.17 µM (active)

IC50 reading for NP(=O)(Oc1ccccc1Cl)Oc1ccccc1Cl : 5.09 µM (active)

IC50 reading for O=C(O)CC(NC(=O)CC(c1ccccc1)c1ccccc1)c1cccc([N+](=O)[O-])c1 (stereo not given) : 7.88 µM (active)

IC50 reading for O=C1Nc2cc(Cl)c(Cl)cc2N(O)N1c1ccc(Cl)c(Cl)c1 : 6.59 µM (active)

IC50 reading for COc1ccc(C2=NN(C(=O)CSc3nc(=O)n4cc(C)ccc4n3)C(c3ccc(C)cc3)C2)cc1 (stereo not given) : 19.2 µM (active)
